All values here come from paper PMC5367588.

Assay: In vivo pharmacokinetics and biodistribution
Set-up: species or system tumor-bearing nude mice
Conditions: female, BALB/c (nude), mouse, kidney, iv, 5 mg/kg

Compound | MRT inf, h
CC[C@@]1(O)C(=O)OCc2c1cc1n(c2=O)Cc2cc3cc(O)ccc3nc2-1 [10-HCPT, 10-Hydroxycamptothecin, reference compound] | 5.96

* * *

Experiment: In vivo pharmacokinetics and biodistribution
Parameters: species or system tumor-bearing nude mice
Details: female, BALB/c (nude), mouse, kidney, iv, 5 mg/kg

Molecule | Unit Label | AUC(0-inf)
CC[C@@]1(O)C(=O)OCc2c1cc1n(c2=O)Cc2cc3cc(O)ccc3nc2-1 [10-HCPT, 10-Hydroxycamptothecin, reference compound] | ng·h/mL | 2090
